# credit: patent US20240092836A1

Biological target: T1, Orencia
T1 sequence (chain, INN chains, looked up, looked up): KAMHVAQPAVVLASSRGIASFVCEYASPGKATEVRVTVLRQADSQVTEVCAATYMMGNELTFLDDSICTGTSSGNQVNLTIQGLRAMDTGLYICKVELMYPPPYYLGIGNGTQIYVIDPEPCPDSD
Experiment: ELISA, signal on Orencia over SA
Define the label as MET when S/N(SA) is strictly less than 7 and as NOT MET in all remaining cases.

- GGCMHPFLPILSHHFCAG (peptide, not shown: large carriers; small tags and cut ends, MBP fusion; also called #21) [C4-302mat-3-1-32]: NOT MET

Req: Hello, I'm reviewing records and need to know if S/N(SA) of GGCKHPFLPVVSHHFCGG (peptide, not shown: large carriers; small tags and cut ends, MBP fusion; also called #13) [C4-302mat-3-100-9] is below 7. Could you check?
Resp: NOT MET

Req: Hello, I'm reviewing records and need to know if S/N(SA) of GGCMHPYLQVVSHHFCGR (peptide, not shown: large carriers; small tags and cut ends, MBP fusion) [C4-302mat-3-1-2] is below 7. Could you check?
Resp: NOT MET

Req: Hello, I'm reviewing records and need to know if S/N(SA) of GGCMHPFLLVVSHHFCGG (peptide, not shown: large carriers; small tags and cut ends, MBP fusion; also called original clone; Original) [H12SSI-Ctla4-3-02 (MBP fusion)] is below 7. Could you check?
Resp: MET

Req: Hello, I'm reviewing records and need to know if S/N(SA) of GGCMHPFLPVASHHFCGG (peptide, not shown: large carriers; small tags and cut ends, MBP fusion) [C4-302mat-1-1-35] is below 7. Could you check?
Resp: NOT MET
